# TESTED ON: TLR8 (Homo sapiens, UniProt Q9NR97)
# Sequence (Q9NR97 27-1041): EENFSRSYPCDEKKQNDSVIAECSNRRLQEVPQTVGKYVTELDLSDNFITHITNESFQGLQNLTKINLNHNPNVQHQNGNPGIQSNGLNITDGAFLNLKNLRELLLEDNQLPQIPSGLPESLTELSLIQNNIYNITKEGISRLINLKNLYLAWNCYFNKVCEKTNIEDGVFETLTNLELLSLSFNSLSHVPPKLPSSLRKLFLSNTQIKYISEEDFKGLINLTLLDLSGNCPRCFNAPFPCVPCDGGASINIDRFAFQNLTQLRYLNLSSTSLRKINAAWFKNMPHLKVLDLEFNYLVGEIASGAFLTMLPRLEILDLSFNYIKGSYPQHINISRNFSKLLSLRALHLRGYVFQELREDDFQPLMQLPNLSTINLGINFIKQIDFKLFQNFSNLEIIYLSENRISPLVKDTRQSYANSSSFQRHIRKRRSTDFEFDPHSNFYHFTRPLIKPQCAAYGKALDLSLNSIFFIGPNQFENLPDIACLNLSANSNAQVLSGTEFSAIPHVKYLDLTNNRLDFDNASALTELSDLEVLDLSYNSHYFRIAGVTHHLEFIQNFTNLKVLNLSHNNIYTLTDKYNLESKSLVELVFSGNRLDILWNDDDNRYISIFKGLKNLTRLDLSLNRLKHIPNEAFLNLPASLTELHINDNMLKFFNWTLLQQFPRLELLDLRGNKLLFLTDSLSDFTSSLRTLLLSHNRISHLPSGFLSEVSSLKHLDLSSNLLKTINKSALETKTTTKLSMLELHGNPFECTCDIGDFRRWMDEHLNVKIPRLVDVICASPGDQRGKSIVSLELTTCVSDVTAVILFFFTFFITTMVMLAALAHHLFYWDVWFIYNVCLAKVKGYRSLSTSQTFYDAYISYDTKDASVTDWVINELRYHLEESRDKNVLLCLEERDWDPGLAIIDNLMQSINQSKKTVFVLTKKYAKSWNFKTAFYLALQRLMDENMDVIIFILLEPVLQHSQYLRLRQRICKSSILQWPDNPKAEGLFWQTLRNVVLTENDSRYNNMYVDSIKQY
# TEST PROTOCOL: TLR8 reporter gene assay, antagonism (CL075 as agonist)
# REPORTED CONDITIONS: agonist CL075 1 μg/mL; ND = not detected
REPORTED ENDPOINT: pIC50
Please report pIC50 as the negative decimal logarithm of the molar concentration, giving only the number.

Below, 3 compounds whose answers are already recorded.
>  <COMPOUND>
Nc1nc2ccccc2c2c1nc(CCCCCCCCCCc1nc3c(N)nc4ccccc4c3n1Cc1ccccc1)n2Cc1ccccc1 [Compound 49b]

>  <pIC50>
5.33

$$$$
>  <COMPOUND>
Nc1nc2ccccc2c2c1nc(CCCCc1nc3c(N)nc4ccccc4c3n1Cc1ccccc1)n2Cc1ccccc1 [Compound 47b]

>  <pIC50>
4.81

$$$$
>  <COMPOUND>
Nc1nc2ccccc2c2c1nc(CCCc1nc3c(N)nc4ccccc4c3n1Cc1ccccc1)n2Cc1ccccc1 [Compound 47a]

>  <pIC50>
5.49

$$$$

Next:
Item Nc1nc2ccccc2c2c1nc(CCCCCCc1nc3c(N)nc4ccccc4c3n1Cc1ccccc1)n2Cc1ccccc1 [Compound 49a] has what recorded pIC50?
4.96
